# System Name: human orexin-1 receptor (Homo sapiens (Human), UniProt O43613)
# Sequence (O43613 whole entry): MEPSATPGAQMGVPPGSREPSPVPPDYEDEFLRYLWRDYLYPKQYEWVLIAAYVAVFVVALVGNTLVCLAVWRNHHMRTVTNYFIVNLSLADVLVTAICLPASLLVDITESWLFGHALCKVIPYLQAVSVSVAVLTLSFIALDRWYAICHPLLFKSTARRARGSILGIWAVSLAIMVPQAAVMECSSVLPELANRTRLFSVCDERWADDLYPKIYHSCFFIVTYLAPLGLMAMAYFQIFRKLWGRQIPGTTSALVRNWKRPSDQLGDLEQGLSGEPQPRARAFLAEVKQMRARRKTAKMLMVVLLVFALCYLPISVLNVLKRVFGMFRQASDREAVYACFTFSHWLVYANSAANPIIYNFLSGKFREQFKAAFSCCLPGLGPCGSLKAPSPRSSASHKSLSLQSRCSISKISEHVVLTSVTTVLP
# Protocol: In vitro assay: intracellular calcium measurements (FLIPR), antagonistic activity
# Condition Description: CHO cells expressing human orexin-1 receptor, orexin-A agonist, geometric mean, read-out: IC50 Ox1
Task for the reader: assign each of the following molecules its reported IC50.
Answers are plain numbers, in µM.

Before answering, review these 3 worked examples.
*Q* Item under review: "C=C1C[C@@H](c2nc3cc(OC)ccc3[nH]2)N(C(=O)c2nc(C)sc2-c2ccccc2Cl)C1" . Reported IC50?
*A* 0.398

*Q* Also "Cc1ccc(-n2cccn2)c(C(=O)N2CC[C@H](C)[C@H]2c2nc3c(C)cc(Cl)cc3[nH]2)c1" , if possible.
*A* 0.028

*Q* Now this one: C=C1CN(C(=O)c2ccccc2-c2ccc(F)c(C)c2)C(C)(c2nc3cc(OC)ccc3[nH]2)C1 (racemic)
*A* 0.046

Now look at this entry.
*Q* GET /values?readout=IC50&item= CO[C@H]1CN(C(=O)c2cc(F)ccc2-n2nccn2)C(C)(c2nc3c(C)c(Cl)ccc3[nH]2)C1 (stereo partly shown)
*A* 0.01
